# TEST METHOD NOTES: Oral bioavailability in dog at 3.5 mg/kg after 24 hrs
# Format: ADME, organism-based, Canis lupus familiaris
# TEST CONDITIONS: in vivo
OBSERVED PROPERTY: bioavailability (%)
Numbers only here, please. The scale is %.

Q: Suppose we examine the molecule CCN(CC)[C@@H](C(=O)N1CCC[C@H]1c1ncc(-c2ccc(-c3ccc(-c4cnc([C@@H]5CCCN5C(=O)[C@H](C)NC(=O)OC)[nH]4)cc3)cc2)[nH]1)c1ccccc1 ; what bioavailability value has been reported?
A: 66

---

# TEST METHOD NOTES: Permeability of the compound at PH 7.4 by PAMPA
# Type: ADME
# TEST CONDITIONS: read-out: permeability
This listing pairs compounds with measured Papp.
State the result as a value with its unit after it.

// known answers, use as guide
MOLECULAR STRING | Papp
CN(C)[C@@H](C(=O)N1CCC[C@H]1c1ncc(-c2ccc(-c3ccc(-c4cnc([C@@H]5CCCN5C(=O)[C@H]5CCCO5)[nH]4)cc3)cc2)[nH]1)c1ccccc1 | 15.8 ×10⁻⁶ cm/s
O=C([C@@H](c1ccccc1)N1CCOCC1)N1CCC[C@H]1c1ncc(-c2ccc(-c3ccc(-c4cnc([C@@H]5CCCN5C(=O)[C@@H](c5ccccc5)N5CCOCC5)[nH]4)cc3)cc2)[nH]1 | 34.9 ×10⁻⁶ cm/s
CCN(C)[C@@H](C(=O)N1CCC[C@H]1c1ncc(-c2ccc(-c3ccc(-c4cnc([C@@H]5CCCN5C(=O)[C@@H](c5ccccc5)N(C)CC)[nH]4)cc3)cc2)[nH]1)c1ccccc1 | 10.6 ×10⁻⁶ cm/s
CCN(CC)[C@@H](C(=O)N1CCC[C@H]1c1ncc(-c2ccc(-c3ccc(-c4cnc([C@@H]5CCCN5C(=O)[C@@H](c5ccccc5)N(CC)CC)[nH]4)cc3)cc2)[nH]1)c1ccccc1 | 25.5 ×10⁻⁶ cm/s
COC(=O)N[C@@H](C(=O)N1CCC[C@H]1c1ncc(-c2ccc(-c3ccc(-c4cnc([C@@H]5CCCN5C(C)=O)[nH]4)cc3)cc2)[nH]1)c1ccccc1 | 50 ×10⁻⁶ cm/s
COC(=O)N[C@H](C(=O)N1CCC[C@H]1c1nc(-c2ccc(-c3ccc(-c4c[nH]c([C@@H]5CCCN5C(=O)[C@@H](NC(=O)OC)C(C)C)n4)cc3)cc2)c[nH]1)C(C)C | 49.6 ×10⁻⁶ cm/s
COC(=O)N[C@@H](C(=O)N1CCC[C@H]1c1ncc(-c2ccc(-c3ccc(-c4cnc([C@@H]5CCCN5C(=O)[C@H]5CCCO5)[nH]4)cc3)cc2)[nH]1)c1ccccc1 | 46.4 ×10⁻⁶ cm/s
CCN(CC)[C@@H](C(=O)N1CCC[C@H]1c1ncc(-c2ccc(-c3ccc(-c4cnc([C@@H]5CCCN5C(=O)[C@@H](c5ccccc5)N5CCCCC5)[nH]4)cc3)cc2)[nH]1)c1ccccc1 | 33.7 ×10⁻⁶ cm/s

For the next question, use this compound.
Q: Suppose we examine the compound COC(=O)N[C@@H](C(=O)N1CCC[C@H]1c1ncc(-c2ccc(-c3ccc(-c4cnc([C@@H]5CCCN5C(=O)[C@@H]5CCCO5)[nH]4)cc3)cc2)[nH]1)c1ccccc1 ; what Papp value has been reported?
A: 48 ×10⁻⁶ cm/s
